Assay: Selectivity index, CC50 for human HepG2 cells to IC50 for chloroquine-resistant/mefloquine-sensitive Plasmodium falciparum W2 ring stage forms
Format: toxicity
Conditions: read-out: Ratio CC50/IC50
QUANTITY KIND: selectivity ratio
// keep it numeric: no unit symbol after the value

(Q) What does the record list as selectivity ratio for `CC(C)=CCC1=C(OCc2cn(C3CCNCC3)nn2)C(=O)c2ccccc2C1=O` ?
(A) 124

(Q) Which selectivity ratio is listed for `CC(C)=CCC1=C(OCc2cn(-c3ccc(C#N)cc3)nn2)C(=O)c2ccccc2C1=O` ?
(A) 84.2

(Q) For `COc1ccc(-n2cc(COC3=C(CC=C(C)C)C(=O)c4ccccc4C3=O)nn2)c([N+](=O)[O-])c1` , what is its reported selectivity ratio?
(A) 64.8

(Q) Which measured selectivity ratio value corresponds to `CC(C)=CCC1=C(OCc2cn(Cc3ccccn3)nn2)C(=O)c2ccccc2C1=O` ?
(A) 75.6

(Q) Could you tell me which selectivity ratio is on file for `CC(C)=CCC1=C(OCc2cn(-c3ccccc3C)nn2)C(=O)c2ccccc2C1=O` ?
(A) 13.6

(Q) Record request: selectivity ratio value, item `CC(C)=CCC1=C(OCc2cn(-c3ccc([N+](=O)[O-])cc3)nn2)C(=O)c2ccccc2C1=O`
(A) 46.1

(Q) // query selectivity ratio value for entry `CC(C)=CCC1=C(OCc2cn(-c3cccnc3)nn2)C(=O)c2ccccc2C1=O`
(A) 198

(Q) Give the measured selectivity ratio of `CC(C)=CCC1=C(OCc2cn(-c3ccc(Cl)cc3)nn2)C(=O)c2ccccc2C1=O` .
(A) 118

(Q) Quick check: selectivity ratio of `COc1ccc(-n2cc(COC3=C(CC=C(C)C)C(=O)c4ccccc4C3=O)nn2)cc1` ?
(A) 14.1

(Q) // lookup selectivity ratio for `CC(C)=CCC1=C(OCc2cn(-c3cccc(F)c3)nn2)C(=O)c2ccccc2C1=O`
(A) 31.5

(Q) Quick check: selectivity ratio of `CC(C)=CCC1=C(OCc2cn(-c3ccccc3)nn2)C(=O)c2ccccc2C1=O` ?
(A) 5.2

(Q) # query: selectivity ratio of entry `CC(C)=CCC1=C(OCc2cn(Cc3ccccc3)nn2)C(=O)c2ccccc2C1=O`
(A) 53

(Q) Requested field: selectivity ratio. Item: `CC(C)=CCC1=C(OCc2cn(C3CCN(C(=O)OC(C)(C)C)CC3)nn2)C(=O)c2ccccc2C1=O`
(A) 34

(Q) Would you kindly share the measured selectivity ratio for `C#CCOC1=C(CC=C(C)C)C(=O)c2ccccc2C1=O` ?
(A) 113

(Q) Field request: selectivity ratio | item: CC(C)=CCC1=C(OCc2cn(C3C[C@@H](CO)O[C@H]3n3cc(C)c(=O)[nH]c3=O)nn2)C(=O)c2ccccc2C1=O (stereo not given in full)
(A) 4.5

(Q) What selectivity ratio value was documented for this molecule, `CC(C)=CCC1=C(OCc2cn(-c3ccnc4cc(Cl)ccc34)nn2)C(=O)c2ccccc2C1=O` ?
(A) 129

(Q) Which measured selectivity ratio value corresponds to `COc1cc([N+](=O)[O-])ccc1-n1cc(COC2=C(CC=C(C)C)C(=O)c3ccccc3C2=O)nn1` ?
(A) 171

Values compiled from ChEMBL document CHEMBL4251640.
